- tested_system: hT1R2/mT1R3 (UniProt Q8TE23+Q925D8)
- Construct: expressed in transfected cells; host or cells: HEK293E
- test_details: Intracellular calcium assay (ΔF/F, S/N ratio) in HEK293E cells expressing hT1R2 and mT1R3 with Gα15-trans48LD
- Assay type: cell-based, human/mouse
- test_settings: Table 4, genes hT2/mT3 (hT1R2, mT1R3)
Residues, ends and D or L forms follow the SMILES beside them.
# S/N listing for each entry below
Form: value (number only, do not type unit).

Please review the entries below; each comes with its answer.
| molecule | tested_system | endpoint_label | measured_number |
| --- | --- | --- | --- |
| CC1=CC(=O)NS(=O)(=O)O1 | hT1R2/mT1R3 (UniProt Q8TE23+Q925D8) | S/N | 2.4 |
| C[C@H](NC(=Nc1ccc(C#N)cc1)NCC(=O)O)c1ccccc1 | hT1R2/mT1R3 (UniProt Q8TE23+Q925D8) | S/N | 3.9 |

stdin: Any idea what S/N was measured for `OC[C@H]1O[C@H](O[C@]2(CCl)O[C@H](CCl)[C@@H](O)[C@@H]2O)[C@H](O)[C@@H](O)[C@H]1Cl` ?
stdout: 4.0

stdin: Same for `COC(=O)[C@H](Cc1ccccc1)NC(=O)[C@H](CC(=O)O)NCCC(C)(C)C`
stdout: 3.4

stdin: Now consider O=C1NS(=O)(=O)c2ccccc21.[Na] [Saccharin Na, sodium saccharin] and answer again.
stdout: 2.8

stdin: Next molecule: `OC[C@H]1O[C@@](CO)(O[C@H]2O[C@H](CO)[C@@H](O)[C@H](O)[C@H]2O)[C@@H](O)[C@@H]1O`
stdout: 2.4

stdin: Follow-up entry: `COC(=O)[C@H](Cc1ccccc1)NC(=O)[C@H](CC(=O)O)NCCCc1ccc(OC)c(O)c1`
stdout: 4.6

stdin: Check COC(=O)[C@H](Cc1ccccc1)NC(=O)[C@@H](N)CC(=O)O [Aspartame, aspartame] (HELM PEPTIDE1{D.F.[CO[*:1]]}$$$$V2.0) too.
stdout: 2.3

###

- tested_system: h-mT1R2-EX5/mT1R3 (UniProt Q8TE23+Q925D8, A537S/A564V/A568V/A570T/A649T/A658V/A782V/E530V/E534N/E542M/E548N/F525Y/F665L/G696N/G701T/H528R/I490V/I510L/I518V/I595M/I643V/I645L/I692L/I695G/K504M/K626T/K714N/L521P/L571I/L578I/L610P/L631F/L636F/L639V/L688V/L702I/L734M/L800F/M492I/M616G/M682V/M690V/M748V/N540G/N541S/N721H/P638T/P824S/Q536L/Q546K/Q555R/Q676H/R498S/R667S/S501P/S547N/S550A/S628F/S663R/S670G/S681F/S703N/S727G/S784D/S804G/T529S/T549I/T609V/T629S/T642S/T705I/T706G/T716I/V508I/V512P/V557A/V585L/V613L/V617M/V673M/V687A/V691A/V694A/V718L/V741L/V774I/V791M/Y533F/Y615F/Y671F/Y769S/Y783H)
- Sequence (Q8TE23 with tags, fused parts or gaps with the stated changes limits assumed): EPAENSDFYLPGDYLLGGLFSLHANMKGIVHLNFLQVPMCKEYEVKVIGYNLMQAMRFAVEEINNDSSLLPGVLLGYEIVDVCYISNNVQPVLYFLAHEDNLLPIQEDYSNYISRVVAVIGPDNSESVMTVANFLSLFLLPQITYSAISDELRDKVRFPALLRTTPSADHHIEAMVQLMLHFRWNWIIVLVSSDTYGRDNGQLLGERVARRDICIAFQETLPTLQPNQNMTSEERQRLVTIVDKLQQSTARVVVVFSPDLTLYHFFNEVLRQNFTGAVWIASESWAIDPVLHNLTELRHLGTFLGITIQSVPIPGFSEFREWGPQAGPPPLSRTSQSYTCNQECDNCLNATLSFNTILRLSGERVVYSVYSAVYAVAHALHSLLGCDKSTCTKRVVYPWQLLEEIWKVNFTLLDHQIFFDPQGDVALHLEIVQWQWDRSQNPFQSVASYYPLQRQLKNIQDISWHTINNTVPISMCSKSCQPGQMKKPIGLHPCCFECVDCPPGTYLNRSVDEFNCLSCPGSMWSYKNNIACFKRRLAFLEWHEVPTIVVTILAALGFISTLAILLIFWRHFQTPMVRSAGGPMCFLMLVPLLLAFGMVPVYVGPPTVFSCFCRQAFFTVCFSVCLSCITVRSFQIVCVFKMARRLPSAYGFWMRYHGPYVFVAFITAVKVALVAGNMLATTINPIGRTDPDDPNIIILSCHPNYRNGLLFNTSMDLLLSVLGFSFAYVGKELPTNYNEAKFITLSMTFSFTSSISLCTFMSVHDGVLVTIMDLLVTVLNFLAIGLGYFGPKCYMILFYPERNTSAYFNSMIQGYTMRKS
- Sequence (Q925D8 21-858, stated change not applied): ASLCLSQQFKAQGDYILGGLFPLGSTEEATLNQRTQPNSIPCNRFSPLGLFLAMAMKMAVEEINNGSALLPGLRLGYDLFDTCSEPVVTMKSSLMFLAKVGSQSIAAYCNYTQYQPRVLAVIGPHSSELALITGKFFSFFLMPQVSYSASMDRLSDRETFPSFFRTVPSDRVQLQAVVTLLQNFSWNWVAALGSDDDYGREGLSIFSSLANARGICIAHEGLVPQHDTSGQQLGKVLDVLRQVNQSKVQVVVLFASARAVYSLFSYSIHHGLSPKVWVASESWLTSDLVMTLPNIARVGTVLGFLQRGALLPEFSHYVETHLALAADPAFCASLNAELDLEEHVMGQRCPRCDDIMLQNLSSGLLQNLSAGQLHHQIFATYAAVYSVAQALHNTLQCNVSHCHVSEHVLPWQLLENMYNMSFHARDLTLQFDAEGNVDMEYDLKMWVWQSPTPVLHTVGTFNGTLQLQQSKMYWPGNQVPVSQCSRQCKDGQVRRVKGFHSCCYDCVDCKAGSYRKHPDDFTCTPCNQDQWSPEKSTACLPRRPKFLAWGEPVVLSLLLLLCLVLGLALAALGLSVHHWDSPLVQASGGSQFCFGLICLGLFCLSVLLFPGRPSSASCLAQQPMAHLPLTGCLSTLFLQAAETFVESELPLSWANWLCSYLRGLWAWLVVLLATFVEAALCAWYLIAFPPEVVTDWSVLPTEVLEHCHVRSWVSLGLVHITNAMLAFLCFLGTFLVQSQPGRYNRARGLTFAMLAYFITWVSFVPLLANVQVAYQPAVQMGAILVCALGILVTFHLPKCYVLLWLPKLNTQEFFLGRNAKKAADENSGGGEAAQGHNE
- test_settings: Table 4; genes h-mTEX5/mT3 (h-mT1R2-EX5, mT1R3); HEK293E cells
Residues, ends and D or L forms follow the SMILES beside them.
endpoint_label: S/N
Give only the figure.

| compound | S/N |
| --- | --- |
| O=C1NS(=O)(=O)c2ccccc21.[Na] [Saccharin Na, sodium saccharin] | 3.8 |
| COC(=O)[C@H](Cc1ccccc1)NC(=O)[C@@H](N)CC(=O)O [Aspartame, aspartame] (HELM PEPTIDE1{D.F.[CO[*:1]]}$$$$V2.0) | 5.5 |
| C[C@H](NC(=Nc1ccc(C#N)cc1)NCC(=O)O)c1ccccc1 [SC-45647] | 5.3 |
| OC[C@H]1O[C@H](O[C@]2(CCl)O[C@H](CCl)[C@@H](O)[C@@H]2O)[C@H](O)[C@@H](O)[C@H]1Cl [Sucralose, sucralose] | 5.9 |
| CC1=CC(=O)NS(=O)(=O)O1 [Acesulfame K, acesulfame potassium] | 3.7 |

stdin: // returns reported S/N for input COC(=O)[C@H](Cc1ccccc1)NC(=O)[C@H](CC(=O)O)NCCC(C)(C)C [Neotame, neotame]
stdout: 5.2

stdin: Note, next up: OC[C@H]1O[C@@](CO)(O[C@H]2O[C@H](CO)[C@@H](O)[C@H](O)[C@H]2O)[C@@H](O)[C@@H]1O [Sucrose, sucrose]
stdout: 3.7

stdin: What about COC(=O)[C@H](Cc1ccccc1)NC(=O)[C@H](CC(=O)O)NCCCc1ccc(OC)c(O)c1 [Advantame, advantame] ?
stdout: 7.0

###

- tested_system: hT1R2/T1R3mosaicA (UniProt Q8TE23+Q925D8, A12W/A31M/A558R/A588V/A645S/A698V/A702T/A793V/A807V/C582S/C678S/E16H/E725V/F14L/F29L/F541I/F612A/F622V/F695L/H728R/I36V/I60P/I617V/I706V/I740A/I803L/K30R/K555R/K565R/K818R/K827G/L17P/L560F/L684P/L735F/L823M/L825Q/M19T/M644L/M744T/N52R/N547G/N58S/N63T/N675D/P545F/P561R/P564S/P61V/Q32K/Q53S/Q550E/Q56R/Q611L/Q757R/Q795R/Q831P/R632Q/S22P/S45E/S576L/S595F/S610P/S635P/S637R/S679G/S717H/T46A/T50G/T542A/T663I/T694M/T813A/V573A/V584A/V718M/V723A/V729T/V738A/V805L/V812A/V821L/W599R/W676R/W824R/Y680C/Y794L)
- Sequence (Q925D8 with tags, fused parts or gaps with the stated changes limits assumed, one chain of several): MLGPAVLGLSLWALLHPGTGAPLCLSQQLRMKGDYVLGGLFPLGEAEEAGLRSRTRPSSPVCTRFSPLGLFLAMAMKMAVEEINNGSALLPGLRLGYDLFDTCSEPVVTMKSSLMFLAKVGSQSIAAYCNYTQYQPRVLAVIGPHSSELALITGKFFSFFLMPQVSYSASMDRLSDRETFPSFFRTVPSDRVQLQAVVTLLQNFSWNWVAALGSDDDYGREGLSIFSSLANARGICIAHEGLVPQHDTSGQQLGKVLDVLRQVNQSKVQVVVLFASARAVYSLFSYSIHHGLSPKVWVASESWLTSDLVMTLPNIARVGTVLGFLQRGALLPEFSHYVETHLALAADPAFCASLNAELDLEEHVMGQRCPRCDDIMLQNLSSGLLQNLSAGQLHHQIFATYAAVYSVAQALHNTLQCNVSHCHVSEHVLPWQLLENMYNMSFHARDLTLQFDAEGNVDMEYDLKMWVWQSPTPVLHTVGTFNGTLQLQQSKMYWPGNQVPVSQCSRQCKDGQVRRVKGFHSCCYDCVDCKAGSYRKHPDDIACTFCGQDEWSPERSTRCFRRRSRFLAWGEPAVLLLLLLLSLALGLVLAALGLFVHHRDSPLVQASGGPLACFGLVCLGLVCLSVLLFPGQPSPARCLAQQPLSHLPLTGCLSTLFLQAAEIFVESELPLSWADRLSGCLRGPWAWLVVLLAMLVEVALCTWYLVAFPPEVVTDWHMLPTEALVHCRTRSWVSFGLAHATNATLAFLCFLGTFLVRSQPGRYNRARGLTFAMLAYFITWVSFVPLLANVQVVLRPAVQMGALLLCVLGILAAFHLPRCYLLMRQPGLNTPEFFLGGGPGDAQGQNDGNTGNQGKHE
- test_settings: Table 6; genes hT2/T1R3mA (hT1R2, T1R3mA); HEK293E cells
Quick reference: S/N of the listed items.
# output: bare number, no unit

| smiles_notation | S/N |
| --- | --- |
| OC[C@H]1O[C@@](CO)(O[C@H]2O[C@H](CO)[C@@H](O)[C@H](O)[C@H]2O)[C@@H](O)[C@@H]1O | 2.3 |

stdin: Would you mind telling me what S/N value was observed for `C[C@H](NC(=Nc1ccc(C#N)cc1)NCC(=O)O)c1ccccc1` ?
stdout: 6.8

stdin: Now consider `OC[C@H]1O[C@H](O[C@]2(CCl)O[C@H](CCl)[C@@H](O)[C@@H]2O)[C@H](O)[C@@H](O)[C@H]1Cl` .
stdout: 5.9

stdin: Please do the same for `COC(=O)[C@H](Cc1ccccc1)NC(=O)[C@H](CC(=O)O)NCCCc1ccc(OC)c(O)c1` as well.
stdout: 7.5

###

Property: S/N; scope: individual molecules
- tested_system: hT1R2/hT1R3 (Homo sapiens, UniProt Q7RTX0+Q8TE23, C757R)
- Construct: expressed in transfected cells; host or cells: HEK293E
- Sequence (Q8TE23 20-839): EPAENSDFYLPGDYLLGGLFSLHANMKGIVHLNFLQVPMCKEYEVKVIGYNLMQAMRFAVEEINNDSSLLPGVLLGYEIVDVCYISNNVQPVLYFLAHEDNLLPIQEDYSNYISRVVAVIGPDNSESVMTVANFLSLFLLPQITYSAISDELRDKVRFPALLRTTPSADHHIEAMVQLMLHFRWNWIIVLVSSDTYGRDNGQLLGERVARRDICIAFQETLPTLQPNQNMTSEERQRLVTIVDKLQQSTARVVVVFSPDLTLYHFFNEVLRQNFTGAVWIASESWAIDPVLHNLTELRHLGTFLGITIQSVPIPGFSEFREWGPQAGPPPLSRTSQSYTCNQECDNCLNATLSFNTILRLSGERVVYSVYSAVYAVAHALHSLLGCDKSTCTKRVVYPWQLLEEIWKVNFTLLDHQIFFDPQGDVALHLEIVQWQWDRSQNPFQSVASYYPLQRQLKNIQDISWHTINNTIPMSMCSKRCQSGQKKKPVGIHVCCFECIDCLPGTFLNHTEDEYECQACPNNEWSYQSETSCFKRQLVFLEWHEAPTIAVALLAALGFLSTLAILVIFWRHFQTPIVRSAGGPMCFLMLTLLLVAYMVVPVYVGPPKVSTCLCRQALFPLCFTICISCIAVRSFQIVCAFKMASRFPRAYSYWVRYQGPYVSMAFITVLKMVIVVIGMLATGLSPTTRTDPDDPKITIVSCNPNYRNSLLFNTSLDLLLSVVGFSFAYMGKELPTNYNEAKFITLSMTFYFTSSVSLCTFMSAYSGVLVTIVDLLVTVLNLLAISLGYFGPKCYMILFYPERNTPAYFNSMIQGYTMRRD
- Sequence (Q7RTX0 21-852 C757R): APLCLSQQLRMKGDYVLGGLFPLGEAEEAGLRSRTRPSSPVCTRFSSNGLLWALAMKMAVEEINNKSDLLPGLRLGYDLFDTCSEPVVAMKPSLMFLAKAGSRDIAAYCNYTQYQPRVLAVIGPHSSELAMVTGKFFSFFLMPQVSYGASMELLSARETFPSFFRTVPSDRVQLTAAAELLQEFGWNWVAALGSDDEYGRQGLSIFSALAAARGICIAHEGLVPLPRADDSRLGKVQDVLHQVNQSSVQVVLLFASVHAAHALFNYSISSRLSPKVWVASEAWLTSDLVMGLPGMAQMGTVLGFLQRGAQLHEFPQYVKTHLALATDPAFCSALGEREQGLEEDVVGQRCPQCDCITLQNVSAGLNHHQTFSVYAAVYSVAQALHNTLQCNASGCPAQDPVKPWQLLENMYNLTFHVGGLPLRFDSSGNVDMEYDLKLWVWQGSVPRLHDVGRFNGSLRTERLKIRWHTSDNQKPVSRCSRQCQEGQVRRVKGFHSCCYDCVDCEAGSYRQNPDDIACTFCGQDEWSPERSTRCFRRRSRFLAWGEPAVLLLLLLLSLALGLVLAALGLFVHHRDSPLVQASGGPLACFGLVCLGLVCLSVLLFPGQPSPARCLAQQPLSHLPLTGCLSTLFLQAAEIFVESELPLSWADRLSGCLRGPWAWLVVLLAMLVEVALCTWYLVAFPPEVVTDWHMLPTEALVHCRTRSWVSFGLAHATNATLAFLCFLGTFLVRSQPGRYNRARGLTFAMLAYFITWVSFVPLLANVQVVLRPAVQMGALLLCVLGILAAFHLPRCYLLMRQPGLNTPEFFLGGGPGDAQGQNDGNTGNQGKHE
- test_details: Intracellular calcium assay (ΔF/F, S/N ratio) in HEK293E cells expressing hT1R2 and hT1R3 with Gα15-trans48LD;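 note: fluorescence read over 120 s after adding sweet stimulant across several concentrations, S/N taken as highest over lowest ΔF/F, higher meaning more sensitive detection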
- Assay type: cell-based
- test_settings: Table 6, genes hT2/hT3 (hT1R2, hT1Rm3)
// print number alone

Use these answered entries as a reference point.
| molecule | tested_system | S/N |
| --- | --- | --- |
| O=C1NS(=O)(=O)c2ccccc21.[Na] [Saccharin Na, sodium saccharin] | hT1R2/hT1R3 (Homo sapiens, UniProt Q7RTX0+Q8TE23, C757R) | 2.5 |
| OC[C@H]1O[C@@](CO)(O[C@H]2O[C@H](CO)[C@@H](O)[C@H](O)[C@H]2O)[C@@H](O)[C@@H]1O | hT1R2/hT1R3 (Homo sapiens, UniProt Q7RTX0+Q8TE23, C757R) | 1.9 |
| C[C@H](NC(=Nc1ccc(C#N)cc1)NCC(=O)O)c1ccccc1 | hT1R2/hT1R3 (Homo sapiens, UniProt Q7RTX0+Q8TE23, C757R) | 3.0 |
| COc1ccc(CCC(=O)c2c(O)cc(O[C@@H]3O[C@H](CO)[C@@H](O)[C@H](O)[C@H]3O[C@@H]3O[C@@H](C)[C@H](O)[C@@H](O)[C@H]3O)cc2O)cc1O [NHDC, neohesperidin dihydrochalcone] | hT1R2/hT1R3 (Homo sapiens, UniProt Q7RTX0+Q8TE23, C757R) | 2.0 |

Could you now consider this next molecule?
stdin: // query S/N value for entry `COC(=O)[C@H](Cc1ccccc1)NC(=O)[C@H](CC(=O)O)NCCC(C)(C)C`
stdout: 2.9
